System: DU-145 prostate
Assay: NCI tumour cell line growth inhibition, 48 h
measuredAttribute: TGI

**Query** State its TGI on DU-145 prostate: O=C(NNC(=S)Nc1ccccc1)c1csc(NC(=S)NC2CCCCC2)n1
**Result** > 100 µM

**Query** State its TGI on DU-145 prostate: CC1(C)C2CC(c3ccncc3)ON2C(C)(C)N1O (stereo unspecified)
**Result** > 100 µM

**Query** State its TGI on DU-145 prostate: O=C(NCCO)c1ccc(Cl)cc1
**Result** > 100 µM

**Query** State its TGI on DU-145 prostate: Nc1c(C(=O)c2ccccc2)sc2nc(-c3cccs3)ccc12
**Result** 10 µM

**Query** State its TGI on DU-145 prostate: COC(=O)C(C)Sc1nc2cc(Cl)ccc2s1 (stereo unspecified)
**Result** > 100 µM

**Query** State its TGI on DU-145 prostate: CSCCC(NC(=O)OC(C)(C)C)C(=O)NCCNc1ccc(NCCNC(=O)C(CCSC)NC(=O)OC(C)(C)C)c2c1C(=O)c1ccccc1C2=O (stereo unspecified)
**Result** 33.2 µM

====

Tested on: CCRF-CEM leukemia
Experiment: NCI tumour cell line growth inhibition, 48 h
measuredAttribute: TGI

**Query** Request the reported TGI associated with COc1ccc2c(c1)C(=O)CC(N)C2 (stereo not given)
**Result** > 100 µM

**Query** Request the reported TGI associated with O=C(NCCNCCO)N/N=C/c1ccc(Cl)cc1
**Result** > 100 µM

**Query** Request the reported TGI associated with Cc1[nH]c(-c2ccccc2)c(-c2ccc(Cl)cc2)c1C(=O)ONC(=O)c1ccccc1
**Result** > 21.8 µM

**Query** Request the reported TGI associated with CCOC(=O)[C@@H](C)C[C@H](Cc1ccccc1)NC(=O)c1csc([C@@H](C[C@H](C(C)C)N(C)C(=O)[C@@H](NC(=O)[C@H]2C[C@H](O[Si](C)(C)C(C)(C)C)CCN2C)C(C)C)OC(C)=O)n1
**Result** > 6.87 µM

**Query** Request the reported TGI associated with CCOC(=O)C1=C(C)NC(=S)NC1c1cccc(O)c1 (stereo not given)
**Result** > 89.9 µM

====

System: COLO 205 colon
Assay: NCI tumour cell line growth inhibition, 48 h; in the data active means GI50 below about 0.43 µM; inactive means the rest
Just give me one of these, please: YES = active, NO = inactive

**Query** # lookup: test call for COc1cc(/C=C/c2cc(C(F)(F)F)[nH]c(=O)n2)ccc1OCc1ccccc1F
**Result** NO

**Query** # lookup: test call for COc1cc(-c2cnn(C)c2)ccc1Nc1ncc2ccnc(N[C@@H](C)C(C)(C)C)c2n1
**Result** NO

**Query** # lookup: test call for COC(=O)CCC/C=C\C[C@H]1C=CC(=O)/C1=C/C[C@@H](O)CCc1cccc(C(F)(F)F)c1
**Result** NO

**Query** # lookup: test call for CC(C)c1ccc(Cc2cnc(NC(=O)c3cc(Br)cs3)s2)cc1
**Result** NO

**Query** # lookup: test call for COc1c/c(=C2/C=c3ccccc3=N2)[nH]/c1=C/c1[nH]c(C)cc1C
**Result** YES

**Query** # lookup: test call for O=C(Oc1ccc(O)c2c(=O)n3c(cc12)[nH]c1ccccc13)c1ccccc1
**Result** NO

**Query** # lookup: test call for O=C1c2cc(Br)ccc2-c2c1c1ccc([N+](=O)[O-])cc1c(=O)n2CCCCl
**Result** NO
